FYI, the data here is from paper PMC12668310.

SYSTEM NAME: mUSP18 (Mus musculus, UniProt Q9WTV6)
Construct: (46-368); His-tag (N); made in house
Sequence (Q9WTV6 46-368): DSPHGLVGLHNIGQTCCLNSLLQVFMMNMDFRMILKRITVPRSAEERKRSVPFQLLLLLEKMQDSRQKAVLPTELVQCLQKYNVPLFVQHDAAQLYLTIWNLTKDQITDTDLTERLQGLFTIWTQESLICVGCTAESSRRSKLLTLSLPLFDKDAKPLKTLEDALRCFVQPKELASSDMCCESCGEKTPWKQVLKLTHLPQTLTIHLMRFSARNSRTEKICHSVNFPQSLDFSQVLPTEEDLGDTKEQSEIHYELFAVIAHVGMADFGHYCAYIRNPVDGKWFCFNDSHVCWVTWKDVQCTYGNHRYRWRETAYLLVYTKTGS
METHOD: High-throughput screening, ISG15ct-RhoMP, single dose 1.25 µM
Assay type: biochemical, murine
PARTICULARS: mUSP18 %inhibition; carboxylic acid (CA) with coupling reagents DIC/HOBT; read-out: %inh CA + DIC/HOBT
PARAMETER MEASURED: inhibition at 1.25 µM (%)

O=C(O)c1cc(-c2ccncc2)on1 ... -0.96
Cc1ccc(-n2c(C)ccc2C)c(C(=O)O)c1 ... 60

[1] CC1CN(c2ccc(C(=O)O)cn2)CC(C)O1 (stereo not shown)
[2] CC(=O)CCC(=O)O
[3] O=C(O)c1ncoc1-c1ccco1
Hey, can you sort those compounds up there by inhibition at 1.25 µM, smallest first? Please list the labels in the order you were asked to rank them.
2, 3, 1

---

SYSTEM NAME: mUSP18 (Mus musculus)
Construct: (46-368); His-tag (N); made in house
METHOD: High-throughput screening, ISG15ct-RhoMP, single dose 1.25 µM
Type: biochemical, murine
PARTICULARS: mUSP18 %inhibition; carboxylic acid (CA) with coupling reagents DIC/HOBT; read-out: %inh CA + DIC/HOBT
PARAMETER MEASURED: inhibition at 1.25 µM (%)

Some compounds with known inhibition at 1.25 µM results, for comparison:
O=C(O)c1cc(-n2cccc2)ccn1 ... 0.7
O=C(O)c1cccc(S(=O)(=O)N2CCOCC2)c1 ... -0.86
CC(C)c1nc(Cn2cc(C(=O)O)ccc2=O)cs1 ... 15

[A] O=C(O)c1cccc(C(=O)N2CCCC2)n1
[B] CC1CCCC(N2CC(C(=O)O)CC2=O)C1C (centres unmarked)
Of the pair A and B , name the member with the lesser recorded inhibition at 1.25 µM. Lab log: write the label of the selected item as the result.
B
(B: -3.69%, A: 1.39%)

[a] O=C(O)c1cccc(-c2ncon2)c1
[b] Cc1ccc(N2CCCC(C(=O)O)C2)nc1 (centres unmarked)
Would you mind telling me which has the lower recorded inhibition at 1.25 µM between a and b ? Write down the label attached to your selection.
a
(a: -3.17%, b: 7.64%)

[a] O=C(O)C1CCCN(S(=O)(=O)c2cccs2)C1 (centres unmarked)
[b] Cn1nc(-c2cccnc2)cc1C(=O)O
Returns the identifier with the smallest measured inhibition at 1.25 µM among a and b . Kindly state the label of the option you pick.
a

---

SYSTEM NAME: mUSP18 (Mus musculus)
Construct: (46-368); His-tag (N); made in house
METHOD: High-throughput screening, ISG15ct-RhoMP, single dose 1.25 µM
Assay type: biochemical, murine
PARTICULARS: mUSP18 %inhibition; carboxylic acid (CA) with coupling reagents DIC/HOBT; read-out: %inh CA + DIC/HOBT
PARAMETER MEASURED: inhibition at 1.25 µM (%)

Worked examples, 2 compounds total:
CC(C)(C)OC(=O)N[C@@H](Cc1cn(-c2ccc([N+](=O)[O-])cc2[N+](=O)[O-])cn1)C(=O)O ... -8.26
O=C(O)c1cnn(CCN2CCCC2)c1 ... 3.5

[a] O=C(O)c1ccc(Cn2cccn2)s1
[b] O=C(O)C(OC1CCOCC1)c1ccccc1 (stereo not drawn)
[c] Cn1cc(NS(=O)(=O)c2ccsc2C(=O)O)cn1
[d] O=C(O)C1CCCN1C(=O)Cc1ccccc1 (stereo not drawn)
Highest inhibition at 1.25 µM first, then in falling order down to the smallest. Write the labels, ordered according to the request.
c, d, a, b
(c: 20.1%, d: 4.1%, a: -1.93%, b: -7.73%)
